Source listed as a melting point compilation (Tetko et al.; mined from patent text by program, amines drawn as free bases though some values may be those of a salt).

Please provide measured melting point for the entries that follow.

Fill in the blank: the reported melting point of `Clc1ccc(C2=C[C@H](CN3CC=C(c4ccccc4)CC3)CCC2)cc1` is ____. 138 to 141 °C

Proceed to `O=C(c1ccccc1)c1cccc2c(Cl)c[nH]c12` 145 to 149 °C

Continue with `CC(C)(C)c1ccc(CC(=O)CCCC2CCCCC2)cc1NC(=O)CC1c2ccccc2Oc2ccccc21` 146 to 147 °C

Repeat for the following compound: `NNC(=O)c1nc(CS(=O)(=O)c2ccc(Cl)cc2)no1` 177 °C

Now try NCC(=O)SCC(Cc1ccccc1)C(=O)Nc1cccc(C(=O)O)c1 (stereo not given) . 91 to 96 °C

Moving on to `O=C(O)c1ccc(NCc2sc(Cl)cc2Cl)cc1` 169 to 170 °C

Same question, `COC(=O)NCCOc1cc(-c2ccccc2)on1` this time 95 to 96 °C

Now try `Cc1cc(-c2cc(C(F)F)n3ncc(C(=O)Nc4nc(C)c(S(=O)(=O)NC(C)(C)CO)s4)c3n2)ccc1C(F)(F)F` . 271 °C

Try the compound `CCc1nc(/C=C/c2cn(-c3ccccc3)nc2OCc2ccc(OCc3nc(-c4cccc([N+](=O)[O-])c4)oc3C)c(OC)c2)cs1` 127 to 129 °C

And then `CNS(=O)(=O)c1cnc2ccc(OC)cc2c1O` , what is it? 293 to 294 °C

Field entry: CC#CC1(O)CCC2C3CCC4=CC(=O)CCC4C3C(C(F)F)CC21C (stereo not given) 191 to 193 °C

Now consider `CCC(CC)Nc1nc(C)nc(N2CCc3cc(OC)cc(Cl)c32)c1C#N` and answer again. 192 to 194 °C

Okay, and `O=C(O)CCC(=O)c1ccc(-c2ccc(Cl)cc2F)cc1` ? 127 to 129 °C

Now try `O=C(Cc1c2c(nn1-c1ccccc1)c(Cl)nc1ccccc12)N1CCN(Cc2ccccc2)CC1` . 210 to 212 °C

// next record CCCCC1OC(=O)c2cc(NC3CCCC3)ccc21 (stereo not given) 79 to 81 °C

Next record, please: `CNC(=O)c1ccccc1Nc1nc(Nc2ccc3c(c2)CCN(C(=O)C(F)(F)F)CC3)ncc1Cl` 192 to 194 °C

Thanks! And `Cc1nc(/C=C/c2ccc3ccccc3n2)cc(-n2nc(C)nc2C)n1` ? 153 to 155 °C

Next: `Cc1nc(NCCSCc2nc[nH]c2C)[nH]c(=O)c1Cc1cccnc1` 128 to 131 °C

Record: `COc1cc2c(Nc3ccc(Cl)cc3F)ncnc2cc1OCCCn1ccc(=O)cc1` > 250 °C

Could you do the same for `CSc1cccc(CNC(=O)c2nc3scc(COCc4ccc(C(=O)O)cc4)c3c(=O)[nH]2)c1` , please? 252 to 254 °C

---

Would you mind telling me the reported melting point of each entry?

May I ask what melting point has been recorded for `CS(=O)(=O)Nc1cc2occ(C=NO)c(=O)c2cc1Oc1ccccc1` ? 199 to 200 °C

Now the same for `COc1ccc(Cn2c(=O)c(C#N)c(Cl)c3cc(Cl)cnc32)cc1` 208 °C

Another: `Nc1ccc(Nc2ccc(CCc3ccc(Cl)c(Cl)c3)cc2)c(C(=O)O)c1` 137 to 142 °C

Input CC(C)(C)OC(=O)CC(NC(=O)Nc1cccc(C(=O)O)c1)C(=O)Nc1ccccc1C(=O)c1ccccc1 (stereo not given) 175 to 180 °C

Try the molecule `COc1ccc(S(=O)(=O)F)cc1NC(C)=O` 162 to 164 °C

Also need `CS(=O)(=O)c1ccc(-c2cnn(-c3ccc(F)c(F)c3)c(=O)c2-c2ccc(Cl)cc2)cc1` , thanks. 187 to 188 °C

How about this molecule: Cc1noc(C)c1-c1ccncc1OC1SCC(O)C(O)C1O (stereo not given) 175 to 179 °C

And `O=C(O)c1ccc(Cc2ccccc2)[nH]1` ? 130 to 134 °C

Moving on to `C=CC(C)=CC=CC(C)=CC(=O)OCC` 52 to 53 °C

Same question for CN1CCCC(OC(=O)Nc2ccc(F)cc2)C1 (stereo not given) please. 97 to 98 °C
